Reported values of TGI for individual entries
- System: SK-MEL-5 melanoma
- assay-info: NCI tumour cell line growth inhibition, 48 h

[[record]]
compound = "Cc1nc2c(Br)cc(Br)cc2c(=O)n1-c1ccccc1N"
attribute_measured = "TGI"
result = "39 µM"

[[record]]
compound = "COc1cc(C(C#N)NNC(=O)c2ccccc2O)ccc1O (stereo unspecified)"
attribute_measured = "TGI"
result = "> 100 µM"

[[record]]
compound = "CCCCS(=N)(=O)CC[C@H](N)C(=O)O (stereo partly specified)"
attribute_measured = "TGI"
result = "> 10000 µM"

[[record]]
compound = "CC1(C)CCOC(=O)C(Cl)CC1Cl (stereo unspecified)"
attribute_measured = "TGI"
result = "> 100 µM"

[[record]]
compound = "CCN(CC)CC(C)Nc1ccc(C)c2sc3ccccc3c(=O)c12 (stereo unspecified)"
attribute_measured = "TGI"
result = "2.85 µM"


Kindly consider the entry below.
Which TGI is reported with SK-MEL-5 melanoma for this entry: O=C1Cc2c(-c3ccccc3)cc(-c3cccc(Cl)c3)nc2-c2ccccc2N1 ?
> 48.7 µM

---

Reported values of TGI for individual entries
- Test system: OVCAR-5 ovarian
- assay-info: NCI tumour cell line growth inhibition, 48 h

[[record]]
molecule = "C=CCN(N=O)C(=O)N(CCC)CCCC(NC(C)=O)C(=O)NCc1ccccc1 (stereo unspecified)"
subject_of_test = "OVCAR-5 ovarian"
result = "> 100 µM"

[[record]]
molecule = "Cc1ccc(N2C(=O)C(Cl)=C(Nc3cccc(O)c3)C2=O)cc1Cl"
subject_of_test = "OVCAR-5 ovarian"
result = "31.9 µM"

[[record]]
molecule = "O=C1/C(=C/c2cccs2)N=C(c2ccccc2)N1C1Nc2cc3c(cc2S1)NC(N1C(=O)/C(=C/c2cccs2)N=C1c1ccccc1)S3 (stereo unspecified)"
subject_of_test = "OVCAR-5 ovarian"
result = "75 µM"

[[record]]
molecule = "CCOC(=O)/C(=C\\c1ccc(CO)o1)P(=O)(OCC)OCC"
subject_of_test = "OVCAR-5 ovarian"
result = "> 100 µM"

[[record]]
molecule = "CCOC(OC1=C(C#N)CCC1)C(CC)[Se]c1ccccc1 (stereo unspecified)"
subject_of_test = "OVCAR-5 ovarian"
result = "54.8 µM"


What value of TGI has been reported for the following molecule? CC1CC[C@]2(C(=O)O)CCC3(C)C(=C2[C@H]1C)C=CC1[C@@]2(C)CC[C@H](O)C(C)(C)C2CC[C@]13C (stereo partly specified)
> 100 µM

Next entry: C=C(CNCCO)[C@@H]1CC[C@]2(CO)CC[C@]3(C)[C@H](CC[C@@H]4[C@@]5(C)CCC(NCCc6ccc(O)cc6)C(C)(C)[C@@H]5CC[C@]43C)[C@@H]12 (stereo partly specified)
3.29 µM

Next entry: COc1ccc(N=Cc2ccc(N(CCC#N)CCC#N)cc2)cc1
> 100 µM

Next entry: Nc1cc(CO)cc(Nc2c3ccccc3nc3occc23)c1
> 100 µM

Next entry: COc1cc2[nH]c(-c3ccccc3)cc(=O)c2cc1OC
> 100 µM

Next entry: CC(=O)Oc1ccc2c(c1)CC[C@@H]1C2[C@@H](O[N+](=O)[O-])C[C@@]2(C)C1CC[C@@H]2O (stereo partly specified)
> 71.8 µM

Next entry: c1ccc(N=NNNc2ccc(-c3nc4ccccc4[nH]3)cc2)cc1
> 100 µM

Next entry: CC(=O)O/C(C)=C\C(=O)O/N=C(\N)c1ccc(C)cc1
> 100 µM

Next entry: O=C(c1ccco1)N(C(=S)N1CCN(c2ccccc2)CC1)c1ccccc1
> 100 µM

Next entry: Cn1c(=O)c2c(nc3n2CCC(=O)N3)n(C)c1=O
> 100 µM

Next entry: CN(C)CCOc1ccc(-c2c(Oc3ccc(Cl)cc3)c(=O)oc3ccccc23)cc1
35.7 µM

Next entry: C=C1CCCCCCCCCCC1S(=O)c1ccccc1 (stereo unspecified)
> 100 µM

Next entry: Clc1ccc(-c2nc(-c3ccc(Cl)cc3)[s+]s2)cc1
> 100 µM

Next entry: COC(=O)/C(=N/NC(C)(C)C)C(C(=O)C=C(C)C)C(=O)C(=O)Nc1ccc(Cl)cc1C (stereo unspecified)
> 100 µM

Next entry: CCCCS(=N)(=O)CC[C@H](N)C(=O)O (stereo partly specified)
> 10000 µM

Next entry: COc1cccc2c1C1=CC(=O)CCC1C(C)(C)O2 (stereo unspecified)
> 100 µM

Source: PubChem BioAssay (NCI)
